- target.of.assay: human GIP-R (Homo sapiens)
- Construct: expressed in transfected cells; host or cells: Chinese Hamster Lung (CHL) fibroblast cells, stably transfected
- Sequence (P48546 22-466): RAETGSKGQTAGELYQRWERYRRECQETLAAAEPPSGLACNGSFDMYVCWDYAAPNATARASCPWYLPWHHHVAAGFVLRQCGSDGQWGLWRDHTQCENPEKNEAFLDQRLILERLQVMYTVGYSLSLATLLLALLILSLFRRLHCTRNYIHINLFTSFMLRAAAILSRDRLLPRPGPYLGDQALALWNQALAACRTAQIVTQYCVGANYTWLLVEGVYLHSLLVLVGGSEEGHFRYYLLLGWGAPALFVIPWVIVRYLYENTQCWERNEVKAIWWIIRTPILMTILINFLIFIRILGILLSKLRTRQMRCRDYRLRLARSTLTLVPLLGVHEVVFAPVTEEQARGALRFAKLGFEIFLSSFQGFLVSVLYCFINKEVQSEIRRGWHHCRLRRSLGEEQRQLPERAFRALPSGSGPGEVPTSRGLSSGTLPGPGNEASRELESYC
- assay.explanation: Cyclic AMP production in GIP-R transfected CHL cells
- Type: cell-based
- Protocol: Tissue Culture. […] (v/v) fetal bovine serum, 1% (v/v) antibiotics (100 U/ml penicillin, 0.1 mg/ml streptomycin) (all from Gibco, Paisley, Strathclyde, Scotland). […] Methods. […] The plates were then left on a shaker at room temperature for 30 minutes and tritiated cAMP formation determined by column chromatography using Dowex and alumina ion exchange columns (BioRad Life Science Research, Alpha Analytical, Larne, UK) as previously described (Gault, V. A. et al 2002, Biochem. J. 367:913-920).
Square brackets hold non-standard residues; d marks the D form. Ends that are not written are not given here. * marks the point of attachment. Palmitoyl = CCCCCCCCCCCCCCCC(=O)*; Hyp = O=C(O)[C@@H]1C[C@@H](O)CN1

| substance | EC50 (nM) |
| --- | --- |
| YAKGTFISDYSIAMDKIHQQDFVNWLLAQKGKKNDWKHNITQ [(Lys^3)GIP] | 2.6 |
| YAPGTFISDYSIAMDKIHQQDFVNWLLAQKGKKNDWKHNITQ [(Pro^3)GIP] | 207 |
| YAAGTFISDYSIAMDKIHQQDFVNWLLAQKGKKNDWKHNITQ [(Ala^3)GIP] | 2.3 |
| YAFGTFISDYSIAMDKIHQQDFVNWLLAQKGKKNDWKHNITQ [(Phe^3)GIP] | 1 |
| YAPGTFISDYSIAMDK(Palmitoyl)IHQQDFVNWLLAQKGKKNDWKHNITQ [(Pro^3)LysPAL^16GIP] | 870 |
| YAYGTFISDYSIAMDKIHQQDFVNWLLAQKGKKNDWKHNITQ [(Tyr^3)GIP] | 1.5 |
| YAWGTFISDYSIAMDKIHQQDFVNWLLAQKGKKNDWKHNITQ [(Trp^3)GIP] | 3 |
| YA[Hyp]GTFISDYSIAMDKIHQQDFVNWLLAQKGKKNDWKHNITQ [(Hyp^3)GIP] | 1340 |

Data provenance is patent US20090170762A1.
